biological target: furin, P09958; test: furin cleavage Z-score vs untreated control; higher = more cleavage, active = 3.5 or more, inactive = 1 or less, 8 variable residues between constant flanks; settings: 15 min;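 note: purified furin at 1:10 enzyme:substrate in 50 mM HEPES pH 7.5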
Sequence (P09958 whole entry): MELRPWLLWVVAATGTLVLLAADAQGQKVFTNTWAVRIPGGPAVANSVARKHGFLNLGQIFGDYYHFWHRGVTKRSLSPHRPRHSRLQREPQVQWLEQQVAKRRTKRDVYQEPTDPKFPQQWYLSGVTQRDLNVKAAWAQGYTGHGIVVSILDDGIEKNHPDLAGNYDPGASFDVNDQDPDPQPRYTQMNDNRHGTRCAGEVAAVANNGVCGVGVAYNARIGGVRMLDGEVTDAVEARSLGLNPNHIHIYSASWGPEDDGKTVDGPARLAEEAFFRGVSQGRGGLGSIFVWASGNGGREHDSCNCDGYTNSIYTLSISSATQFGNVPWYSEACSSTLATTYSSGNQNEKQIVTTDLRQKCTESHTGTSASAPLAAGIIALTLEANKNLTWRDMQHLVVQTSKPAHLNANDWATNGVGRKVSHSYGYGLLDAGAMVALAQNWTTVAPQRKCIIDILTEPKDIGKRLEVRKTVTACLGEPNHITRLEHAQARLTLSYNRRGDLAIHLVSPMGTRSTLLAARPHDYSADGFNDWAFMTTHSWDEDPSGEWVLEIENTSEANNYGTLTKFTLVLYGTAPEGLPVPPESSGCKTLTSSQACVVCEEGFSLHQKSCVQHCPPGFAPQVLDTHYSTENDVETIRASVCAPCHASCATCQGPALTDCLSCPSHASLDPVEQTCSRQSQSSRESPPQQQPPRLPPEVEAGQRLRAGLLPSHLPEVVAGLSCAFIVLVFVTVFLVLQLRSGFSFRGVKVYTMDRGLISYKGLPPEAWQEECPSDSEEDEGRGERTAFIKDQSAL
Some of the results follow. The hit rate among all sequences tested is not known here.
Classes to choose from: active, inactive

Some entries whose results are on file:
> print(dat)
              polymer.sequence  discrete.label
1  CAGRLRPLRDAGNASASA [FS-164]          active
2     CAMEEWSQHLAGNASASA [HC7]        inactive
3   CAIGTVLDQAAGNASASA [HC825]        inactive
4  CAGLRRRKRDAGNASASA [FS-930]          active
5   CAMYVGGVEHAGNASASA [HC476]        inactive

What did this assay record as the result for CAITTGSPITAGNASASA [HC803] ? inactive

Hello, I am checking results. What call was entered for CAVVYCSMSYAGNASASA [HC2029] ? inactive

Dear all, I need the recorded test outcome for CATDSRTNRDAGNASASA [FS-1422] , thank you. inactive

What did this assay record as the result for CARRKRYISQAGNASASA [FS-1780] ? active

These data points were gathered from the supplement of paper PMC3545927.
